- PROCEDURE_TEXT: Toxicity liver stage against HepG2, at 10uM
- Assay type: cell-based
- Design: test concentration 10 uM, cell line HepG2-A16-CD81EGFP
- ASSAY_SETUP: human, HepG2-A16-CD81EGFP cells; read-out: INHIBITION
I'd appreciate it if you could supply cytotoxicity at 10 µM values for the items below.
Put down the number, then write its unit next to it.

Query block: cytotoxicity at 10 µM for COc1ccc(CN(Cc2nc(C)no2)C2CCCCC2)cc1OC ?
Result block: -0.0185%

Query block: Follow-up entry: Cc1nnc(Cn2cc(I)cc(C)c2=O)o1
Result block: 0.0894%

Query block: Follow-up entry: CN1CCCC2(C1)CN(C(=O)C1CCCCC1)CCO2 (stereo not drawn)
Result block: 0.994%

Query block: Follow-up entry: CC(C)(C)c1nc(CN(CCC2CCCCC2)CC(N)=O)no1
Result block: -3.08%

Query block: Follow-up entry: CC(C)NC(=O)[C@@]12CCO[C@@H]1CCN(Cc1ccc3c(c1)OCO3)C2
Result block: -1.34%

Query block: Follow-up entry: O=C(NCC(O)c1ccc(F)cc1F)c1ccccc1 (stereo not drawn)
Result block: 4.15%

Query block: Follow-up entry: Cc1cc(CN2C[C@@H]3COC[C@]3(CNS(C)(=O)=O)C2)no1
Result block: -71.2%

Query block: Follow-up entry: CCn1c(N)nc2cc(C(=O)NCCc3sccc3C)cnc21
Result block: -23.3%

Query block: Follow-up entry: COc1ncccc1CN1CCc2[nH]cnc2C1CCSC (stereo not drawn)
Result block: -13.7%

Query block: Follow-up entry: CC(NCc1cnc(C2CCC2)s1)c1ccc(-n2cccn2)cc1 (stereo not drawn)
Result block: 7.67%

Query block: Follow-up entry: O=C(Cc1ccsc1)N1C[C@@H]2COC[C@]2(COCc2cccnc2)C1
Result block: 2.98%

Query block: Follow-up entry: Cc1nc(S(=O)(=O)N2CCSC3(CCCCC3)C2)cn1C
Result block: -9.2%

Query block: Follow-up entry: Cc1noc([C@@H]2C[C@H]3OCC[C@H]3N(CC3CCCC3)C2)n1
Result block: -77.5%

Query block: Follow-up entry: CNc1cc(C)nc(N2CCN(Cc3ccccc3)CC(O)C2)n1 (stereo not drawn)
Result block: -4.21%

Query block: Follow-up entry: Cc1cc(N2CCC(NC(=O)CCC3CCCO3)CC2)nc(C)n1 (stereo not drawn)
Result block: -8.21%

Query block: Follow-up entry: O=c1nc(SCc2cccnc2)c2c(n1CCO)CCCC2
Result block: 8.97%

Query block: Follow-up entry: O=C(Nc1ccccn1)C1(n2cnnn2)CCCCC1
Result block: -7.03%

Query block: Follow-up entry: Cc1ccc(S(=O)(=O)c2ncccc2CN2CCCCC2)cc1
Result block: -47.6%

Query block: Follow-up entry: Cc1nn(C)c(C)c1OCC(=O)N1CCC(O)(C(F)(F)F)CC1
Result block: -5.09%

Query block: Follow-up entry: O=C(O)C1c2nc[nH]c2CCN1Cc1ccc(-c2ccccc2)s1 (stereo not drawn)
Result block: -9.35%

Query block: Follow-up entry: CCc1nnc(CSc2ccccn2)o1
Result block: -2.98%

Query block: Follow-up entry: Cc1cccc(C(C(=O)NCCc2nc(C)cc(=O)[nH]2)N(C)C)c1 (stereo not drawn)
Result block: -6.24%

Query block: Follow-up entry: Cc1ccc(NC(=O)NC(C)c2nc[nH]n2)cc1Cl (stereo not drawn)
Result block: -2.06%

Query block: Follow-up entry: Cc1ccc(N2CC[C@H]3CN(C(=O)c4ccn(C)n4)C[C@H]3C2)nn1
Result block: -102%

Query block: Follow-up entry: COc1ccc(COCC(=O)N2CCN(CC(C)(C)O)CC2)cc1
Result block: -4.92%

Query block: Follow-up entry: CC(=O)c1ccc(S(=O)(=O)N2CCCC2CN2CCCC2)cc1 (stereo not drawn)
Result block: -1.35%

Query block: Follow-up entry: Cc1cnn(CC2CCN(c3cc(C(C)C)nc4ccnn34)CC2)c1
Result block: -10.5%

Query block: Follow-up entry: CCn1cc(S(=O)(=O)NCc2ccnc(-n3ccnc3)c2)cn1
Result block: -1.78%

Query block: Follow-up entry: COCCN(Cc1ccco1)Cc1nc(-c2ccc(C)c(F)c2)no1
Result block: 3.68%

Query block: Follow-up entry: CCOCC1c2c(cnn2C)CCN1C(=O)c1ccncn1 (stereo not drawn)
Result block: -141%

Query block: Follow-up entry: CCc1nc(C2CCCN2C(=O)Cc2cccs2)no1 (stereo not drawn)
Result block: -7.85%

Query block: Follow-up entry: CC(C)C[C@H](N)COc1cccc(F)c1Oc1ccc(Cl)cc1
Result block: 84.7%

Query block: Follow-up entry: COC(=O)c1ccc(CNCc2ccn(C)n2)cc1
Result block: -2.64%

Query block: Follow-up entry: CC(C)CNC(=O)N1C[C@H]2CCN[C@H]2C1
Result block: 7.12%

Query block: Follow-up entry: O=C(NCC1CCN(Cc2ccsc2)CC1)NC1CC1
Result block: 6.82%

Query block: Follow-up entry: COc1c(C)cnc(CNC(=O)c2cc(C)nc3c2c(C)nn3C)c1C
Result block: -1.28%

Query block: Follow-up entry: O=C1CC(c2ccncc2)c2c(sc3c2CCCC3)N1 (stereo not drawn)
Result block: 5.57%

Query block: Follow-up entry: CC(C)CNC(=O)c1ccc2c(c1)nc1n2CCN(Cc2ccco2)C1
Result block: -3.78%

Query block: Follow-up entry: CC(=O)NC1CCCN(c2ccc(C#N)cc2C(F)(F)F)C1 (stereo not drawn)
Result block: 7.44%

Query block: Follow-up entry: COCCN(Cc1nc2c(cnn2C)c(=O)[nH]1)Cc1ccco1
Result block: -5.04%

Query block: Follow-up entry: CCn1cc(C(=O)NC2CCN(S(C)(=O)=O)CC2)c2ccccc21
Result block: 0.95%

Query block: Follow-up entry: COc1ccc(F)c(CNC2CCCc3nc(N(C)C)ncc32)c1 (stereo not drawn)
Result block: 1.81%

Query block: Follow-up entry: CCCc1nc(C)c(C(=O)NCC2CCN(C3CC3)C2)s1 (stereo not drawn)
Result block: -9.34%

Query block: Follow-up entry: CC(C)(O)CNc1ccc(C#N)c(C(F)(F)F)c1
Result block: 1.23%

Query block: Follow-up entry: CC(C)c1nnc2n1CCN(CC(=O)Nc1nncs1)C2
Result block: -4.02%

Query block: Follow-up entry: Cc1ccccc1SC1CCN(C(=O)CCCS(N)(=O)=O)CC1
Result block: -7.76%

Query block: Follow-up entry: CNc1nc(C)c(C(=O)N2CCC(C(O)Cc3ccccc3)CC2)s1 (stereo not drawn)
Result block: 3.11%

Query block: Follow-up entry: CCC(CC)(CNC(=O)c1cccn1Cc1cccnc1)N(C)C
Result block: -53.6%

* * *

- PROCEDURE_TEXT: Toxicity liver stage against HepG2, at 10uM
- Format: cell-based
- Set-up: test concentration 10 uM, cell line HepG2-A16-CD81EGFP
- ASSAY_SETUP: human, HepG2-A16-CD81EGFP cells; read-out: INHIBITION
QUANTITY_KIND: cytotoxicity at 10 µM (%)
Could you give me the number in %? Just the number is fine.

Query block: cytotoxicity at 10 µM for COCCc1noc(CN2CCCC2c2noc(C(C)C)n2)n1 (stereo unspecified) ?
Result block: -11.5

Query block: Follow-up entry: CCOC(=O)CC1CCCCN1C(=O)c1cc(=O)[nH]c(=O)[nH]1 (stereo unspecified)
Result block: 5.76

Query block: Follow-up entry: CC(=O)N1CCCC(c2nc(N(C)C)ncc2-c2ccccc2)C1 (stereo unspecified)
Result block: 14.7

Query block: Follow-up entry: CC(Cn1cccn1)NC(=O)NCc1cccnc1OC(C)C (stereo unspecified)
Result block: -9.44

Query block: Follow-up entry: CNC(=O)[C@@H]1COC[C@H]2CN(C(=O)c3ccc(C)c(C)c3)C[C@H]21
Result block: 11.6

Query block: Follow-up entry: Clc1cccc(N2CCC(NCc3ncc[nH]3)C2)c1 (stereo unspecified)
Result block: 7.41

Query block: Follow-up entry: Cc1nc(-c2nc(C(=O)NC3CC3)c3ccccn23)cn1C(C)C
Result block: -103

Query block: Follow-up entry: O=C(NC1CCCN(c2ncccn2)C1)c1cn2ccccc2n1 (stereo unspecified)
Result block: -4.38

Query block: Follow-up entry: COC(C)(C)C(=O)N[C@H]1CN(c2ncccc2C(N)=O)C[C@@H]1C(C)C
Result block: 6.66

Query block: Follow-up entry: c1csc(CN2CCCN(c3ccc(Cn4ccnc4)cn3)CC2)c1
Result block: -18.2

Query block: Follow-up entry: CC(C)c1nc(C2CCCNC2)no1 (stereo unspecified)
Result block: 0.684

Query block: Follow-up entry: O=C1N(CCc2ccccc2)CCCC12CCN(C(CO)CO)C2 (stereo unspecified)
Result block: -3.25

Query block: Follow-up entry: CN(C)c1nccc(N(C)C2CCOCC2)n1
Result block: 3.13

Query block: Follow-up entry: CCN(CC)S(=O)(=O)NCC1Cc2ccccc2O1 (stereo unspecified)
Result block: 0.477

Query block: Follow-up entry: O=C(CC1[C@H]2CN(Cc3ccsc3)C[C@@H]12)N1CCCC1 (stereo partly specified)
Result block: -1.16

Query block: Follow-up entry: CC(C)NC(=O)N1CCC2(COCc3cnc(-c4ccccc4)nc32)C1 (stereo unspecified)
Result block: -0.311

Query block: Follow-up entry: CNC(=O)[C@@H](CC(C)C)N1CCC[C@H]1C(=O)N(C)Cc1cccnc1
Result block: 3.95

Query block: Follow-up entry: COc1cccc(CNCc2c(C)nc3sc(C)cn23)c1OC
Result block: 32.8

Query block: Follow-up entry: CC(=O)NC[C@]1(O)CCN(C(=O)c2ccc(F)c(Cl)c2)C[C@H]1O
Result block: 1.47

Query block: Follow-up entry: Cn1nccc1C(=O)N1CCN(C(=O)C2CCC2)[C@@H]2CS(=O)(=O)C[C@@H]21
Result block: 4.86

Query block: Follow-up entry: Cc1oc(CN(C)C(=O)c2ccc(C(F)(F)F)cc2)cc1C(=O)O
Result block: 9.08

Query block: Follow-up entry: CCCN1CCN(C(=O)c2cccc(C)n2)[C@H]2CS(=O)(=O)C[C@H]21
Result block: 2.13

Query block: Follow-up entry: O=C(COc1cccc(F)c1)N1C[C@@H](O)[C@H](N2CCCC2)C1
Result block: -4.22

Query block: Follow-up entry: Cn1nc(C(=O)NCc2ccccn2)c2c1CCS(=O)(=O)C2
Result block: 7.21

Query block: Follow-up entry: Cc1cc(N2CCC(O)(CN(C)C(=O)CCN)CC2)c2cnccc2n1
Result block: -3.3

Query block: Follow-up entry: Cc1nc(CN2CCC23CCN(C(=O)c2ccco2)CC3)cs1
Result block: -98.9

Query block: Follow-up entry: O=C(CCN1CCCO1)N1CC[C@@H](c2ccc3ccccc3c2)[C@H](O)C1
Result block: -1.04

Query block: Follow-up entry: CCN1CCC(NC(=O)CN2CCCC2Cn2nc(C)nc2C)CC1 (stereo unspecified)
Result block: -12.7

Query block: Follow-up entry: CCc1cc(=O)[nH]c(-n2nc(C3CC3)cc2NC(=O)C2CC2)n1
Result block: 26.5

Query block: Follow-up entry: CCN(CC)C(=O)CSc1nc2nc(C)ccc2o1
Result block: 5.73

Query block: Follow-up entry: Cc1cc(N(C)C)nc(C2CCCNC2)n1 (stereo unspecified)
Result block: -3.55

Query block: Follow-up entry: c1cnn(CC2CCCN2Cc2noc(C3CC3)n2)c1 (stereo unspecified)
Result block: 1.46

Query block: Follow-up entry: CCn1nccc1CN(C)C(=O)Cn1cc2c(n1)c(C)nn2CC
Result block: 15.4

Query block: Follow-up entry: O=C(CCn1cc(Cl)cn1)N1CCC2(CC1)[C@H](O)C[C@@H]2OCCO
Result block: 19.6

Query block: Follow-up entry: Cc1nccn1-c1ncccc1NC(=O)CCOCC(C)C
Result block: -2.59

Query block: Follow-up entry: CC(=O)N1CCCN(C(=O)NCCCNS(C)(=O)=O)CC1
Result block: -10.3

Query block: Follow-up entry: Cc1nnc(C2CCN(C(=O)c3ccc(-n4cccc4)cc3)CC2)s1
Result block: 6.4

Query block: Follow-up entry: CNC(=O)C1CCC2(CCN(c3ncc(C)cn3)CC2)CO1 (stereo unspecified)
Result block: -4.66

Query block: Follow-up entry: O=C(CC1CC1)N1C[C@@H](O)[C@H](N2CCN(c3ccccc3)CC2)C1
Result block: -0.38

Query block: Follow-up entry: CCCc1n[nH]c(=O)n1Cc1ccc(OC)cc1
Result block: -130

Query block: Follow-up entry: CC1(C)OCC2(CO1)CN(C(=O)c1ccccc1Cl)C2
Result block: -4.21

Query block: Follow-up entry: CCOC(=O)c1cccc(N2CCCC3(CCC(=O)N(C4CC4)C3)C2)n1 (stereo unspecified)
Result block: -1.38

Query block: Follow-up entry: O=C1[C@@H]2CCN(Cc3ccncc3)C[C@@H]2OCCN1c1ccccc1
Result block: -1.06

Query block: Follow-up entry: Cc1cc(C(=O)N2CCCC(c3ccc(C(=O)O)cc3)C2)c(C)o1 (stereo unspecified)
Result block: 11.8

Query block: Follow-up entry: COc1c(C2CCCN2Cc2nc(C3CC3)no2)c(C)nn1C (stereo unspecified)
Result block: -1.79

Query block: Follow-up entry: COC(=O)N1CCC2(CC1)N=C(CCC(C)C)NC2=O
Result block: -2.77
